- Tested on: HepG2
- experiment: Antiproliferative activity against human HepG2 cells at 10 uM after 24 hrs by CCK-8 assay relative to control
- Format: functional
Decide using Activity alone. Strictly below 60%: Y. Equal to or above 60%: N.

input: Determine if C=C1C(=O)O[C@@H]2C3=C(C)[C@@H](OC(=O)c4ccc(C(C)(C)C)cc4)CC3[C@](C)(OC(C)=O)CC[C@@H]12 (stereo partly specified) shows Activity strictly lower than 60%.
output: N

input: Determine if C=C1C(=O)O[C@@H]2C3=C(C)[C@@H](OC(=O)/C=C/c4ccc(OCC)cc4)CC3[C@](C)(OC(C)=O)CC[C@@H]12 (stereo partly specified) shows Activity strictly lower than 60%.
output: Y

Continuing:
input: Determine if C=C1C(=O)O[C@@H]2C3=C(C)[C@@H](OC(=O)/C=C/c4ccc(C#N)cc4)CC3[C@](C)(OC(C)=O)CC[C@@H]12 (stereo partly specified) shows Activity strictly lower than 60%.
output: Y

input: Determine if C=C1C(=O)O[C@@H]2C3=C(C)[C@@H](OC(=O)c4ccc(CCCCC)cc4)CC3[C@](C)(OC(C)=O)CC[C@@H]12 (stereo partly specified) shows Activity strictly lower than 60%.
output: Y
